- Test system: K562 CRISPRi cells
- TEST: Perturb-seq pooled growth measurement (sgRNA counts, growth phenotype γ, relative activity)
- Type: cell-based, human
- CONDITION: sequencing read counts; T0 = day two after transduction
# maps each entry to its Perturb-seq pooled growth sgRNA counts, T0
Respond using a number only.

Consider the following illustrative entries.
RAN_+_131356438.23-P1P2_04: sgRNA targeting RAN, GGCGGTCGCGGCGCTTAGGG, SEQ ID NO: 72 (listed as DNA, chemistry not fully specified)
6001
RPS14_+_149829238.23-P1P2_08: sgRNA targeting RPS14, GAGGCCCGGGCTCGACAATC, SEQ ID NO: 50 (listed as DNA, chemistry not fully specified)
4488
non-targeting_00028: non-targeting negative control sgRNA, GGTGGCCTTTGCAATTGGCG, SEQ ID NO: 162 (listed as DNA, chemistry not fully specified) [reference compound]
8871
non-targeting_00527: non-targeting negative control sgRNA, GTGGGAGCAGATCAAGACTC, SEQ ID NO: 168 (listed as DNA, chemistry not fully specified) [reference compound]
6840
RPS18_+_33239917.23-P1P2_00: sgRNA targeting RPS18, GCTGCGATGCCGCTGGATCA, SEQ ID NO: 40 (listed as DNA, chemistry not fully specified)
6212

INPUT: # input substance: CDC23_−_137548987.23-P1P2_04: sgRNA targeting CDC23, GACAGCCAACGGGACCATGG, SEQ ID NO: 100 (listed as DNA, chemistry not fully specified) ; wanted: its Perturb-seq pooled growth sgRNA counts, T0
OUTPUT: 8019

INPUT: # input substance: RPS15_−_1438413.23-P1P2_02: sgRNA targeting RPS15, GACCAAGGCGATCTCTTCTG, SEQ ID NO: 62 (listed as DNA, chemistry not fully specified) ; wanted: its Perturb-seq pooled growth sgRNA counts, T0
OUTPUT: 5051

INPUT: # input substance: ATP5E_−_57607036.23-P1P2_16: sgRNA targeting ATP5E, GGTGTCCAGGGGCGCTCTGT, SEQ ID NO: 153 (listed as DNA, chemistry not fully specified) ; wanted: its Perturb-seq pooled growth sgRNA counts, T0
OUTPUT: 6210

INPUT: # input substance: CAD_+_27440280.23-P1P2_03: sgRNA targeting CAD, GGCTGGTGAGAAGCCGGGCG, SEQ ID NO: 102 (listed as DNA, chemistry not fully specified) ; wanted: its Perturb-seq pooled growth sgRNA counts, T0
OUTPUT: 7290

INPUT: # input substance: RPS15_−_1438413.23-P1P2_12: sgRNA targeting RPS15, GACCAAAGCGATCTCTTGTG, SEQ ID NO: 63 (listed as DNA, chemistry not fully specified) ; wanted: its Perturb-seq pooled growth sgRNA counts, T0
OUTPUT: 4661

INPUT: # input substance: HSPE1_+_198365089.23-P1P2_03: sgRNA targeting HSPE1, GGTGACTCGCAGTCCGGCCC, SEQ ID NO: 66 (listed as DNA, chemistry not fully specified) ; wanted: its Perturb-seq pooled growth sgRNA counts, T0
OUTPUT: 7473
